Quick reference: log10(EC50) of the listed items.
# targetOfAssay: hAT1R (Homo sapiens, UniProt P30556)
# Sequence (P30556 1-359): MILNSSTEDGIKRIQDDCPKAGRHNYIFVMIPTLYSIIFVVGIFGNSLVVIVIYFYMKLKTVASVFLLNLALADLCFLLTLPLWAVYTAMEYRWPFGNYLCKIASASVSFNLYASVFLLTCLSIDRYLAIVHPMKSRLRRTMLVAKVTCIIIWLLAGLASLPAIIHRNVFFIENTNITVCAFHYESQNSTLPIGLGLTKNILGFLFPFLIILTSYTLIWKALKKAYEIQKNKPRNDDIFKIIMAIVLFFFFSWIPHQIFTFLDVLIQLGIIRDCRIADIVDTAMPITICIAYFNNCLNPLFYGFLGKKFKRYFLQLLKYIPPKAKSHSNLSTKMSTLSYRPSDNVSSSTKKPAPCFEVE
# testSummary: cell-based
# testContext: section of the 42nd table ending at r951, example numbering restarts after the DiscoveRx section; read-out: β-arrestin2 EC50
assayReadout: log10(EC50) (log10 of the value in nM)

INSERT INTO measurements (compound, assayreadout, readoutvalue) VALUES
  ('CCOc1nc2cccc(C(=O)O)c2n1Cc1ccc(-c2cc(N3CCC[C@H](C)C3)ccc2-c2nn[nH]n2)cc1 [Example 324]', 'log10(EC50)', 1.80),
  ('CCCCc1nc(Cl)c(C(=O)O)n1Cc1ccc(-c2cc(-c3ccccc3)ccc2-c2nn[nH]n2)cc1 [Example 384]', 'log10(EC50)', 1.03),
  ('CCCC1=NC2(CCOC2)C(=O)N1Cc1ccc(-c2cc(-c3ccccc3F)ccc2-c2nnn[nH]2)cc1 (single isomer, unassigned) [Example 161]', 'log10(EC50)', 1.67),
  ('CCc1nc2c(C)cc(C)nc2n1Cc1ccc(-c2cc(-c3ccccn3)ccc2C(=O)O)cc1 [Example 192]', 'log10(EC50)', 2.10),
  ('CCCCc1nc(Cl)c(C(=O)O)n1Cc1ccc(-c2cc(Oc3cccnc3)ccc2-c2nn[nH]n2)cc1 [Example 428]', 'log10(EC50)', 2.09),
  ('CCc1nc2c(C)cc(C)nc2n1Cc1ccc(-c2cc(-c3cc(C)ccn3)ccc2C(=O)O)cc1 [Example 193]', 'log10(EC50)', 2.12);

* * *

# targetOfAssay: AGTR1 (Homo sapiens)
# Construct: host or cells: Pathunter CHO-K1 AGTR1 β-arrestin cell line (CHO-K1)
# testSummary: DiscoveRx β-arrestin2 recruitment assay (enzyme complementation, Pathunter CHO-K1 AGTR1 β-arrestin cell line)
# Format: cell-based
# testContext: DiscoveRx β-arrestin2 recruitment, maximal response
assayReadout: DiscoveRx β-arrestin2 Ymax (%)

INSERT INTO measurements (molecule, readoutvalue) VALUES
  ('CCCCC1=NC2(CCCC2)C(=O)N1Cc1ccc(-c2cc(N3CCCC(F)(F)C3)ccc2-c2noc(=O)[nH]2)cc1 [Example 121]', 47.4),
  ('CCCCc1nc(Cl)c(C(=O)O)n1Cc1ccc(-c2cc(N3CCc4ccccc43)ccc2-c2noc(=O)[nH]2)cc1 [Example 406]', 33.9),
  ('CCCCC1=NC2(CCOCC2)C(=O)N1Cc1ccc(-c2cc(-c3cc(C)ccn3)ccc2-c2nn[nH]n2)cc1 [Example 171]', 38.6),
  ('CCc1nc2c(C)cc(C)nc2n1Cc1ccc(-c2cc(-c3ccc(OC(F)(F)F)cc3)ccc2-c2nn[nH]n2)cc1 [Example 6]', 27.0),
  ('CCc1nc2c(C)cc(C)nc2n1Cc1ccc(-c2cc(-c3cc(OC)ccn3)ccc2-c2nn[nH]n2)cc1 [Example 62]', 50.0),
  ('CCc1nc2c(C)cc(C)nc2n1Cc1ccc(-c2cc(N3CCc4ccccc43)ccc2-c2nn[nH]n2)cc1 [Example 96]', 33.0),
  ('CCc1nc2c(C)cc(C)nc2n1Cc1ncc(-c2cc(-c3ccccc3O)ccc2-c2nnn[nH]2)cn1 [Example 189]', 53.0),
  ('CCCCc1nc(Cl)c(C(=O)O)n1Cc1ccc(-c2cc(-c3ccccc3)ccc2C(=O)O)cc1 [Example 410]', 41.9),
  ('CCc1nc2c(C)cc(C)nc2n1Cc1ccc(-c2cc(-n3cc(C)cn3)ccc2-c2nnn[nH]2)cc1 [Example 217]', 70.3),
  ('CCCCC(=O)N(Cc1ccc(-c2cc(-c3ccccc3)ccc2-c2nn[nH]n2)cc1)[C@]1(C(=O)O)CC[C@@H](O)CC1 [Example 283]', 57.5),
  ('CCc1nc2c(C)cc(C)nc2n1Cc1ccc(-c2cc(OC3CCCCC3)ccc2-c2nnn[nH]2)cc1 [Example 209]', 49.6),
  ('Cc1ccnc(-c2ccc(-c3nn[nH]n3)c(-c3ccc(CN4C(=O)C5(CCCC5)N=C4C4CC4)cc3)c2)c1 [Example 120]', 44.5),
  ('CCCCC1=NC2(CCOC2)C(=O)N1Cc1ccc(-c2cc(-c3ccccc3O)ccc2-c2nnn[nH]2)cc1 (single isomer, unassigned) [Example 151]', 44.3),
  ('CCc1nc2c(C)cc(C)nc2n1Cc1ccc(-c2cc(-c3ccc(C)cc3)ccc2-c2nn[nH]n2)cc1 [Example 18]', 54.2),
  ('CCc1nc2c(C)cc(C)nc2n1Cc1ccc(-c2cc(C3CCCO3)ccc2-c2nn[nH]n2)cc1 (single isomer, unassigned) [Example 74]', 3.9),
  ('CCc1nc2c(C)cc(C)nc2n1Cc1ccc(-c2cc(-c3ccc(CO)cc3)ccc2-c2nn[nH]n2)cc1 [Example 63]', 26.1),
  ('CCCCc1nc(Cl)c(C(N)=O)n1Cc1ccc(-c2cc(-c3ccccc3)ccc2-c2noc(=O)[nH]2)cc1 [Example 394]', 59.1),
  ('CCCCC1=NC2(CCCC2)C(=O)N1Cc1ccc(-c2cc(-c3ccsc3)ccc2-c2nn[nH]n2)cc1 [Example 130]', 31.2),
  ('CCc1nc2c(C)cc(C)nc2n1Cc1ccc(-c2cc(-c3ccccc3)ccc2-c2noc(=S)[nH]2)cc1 [Example 72]', 63.6),
  ('CCCCc1ncc(C(=O)NCCC(C)C)n1Cc1ccc(-c2cc(-c3ccccc3)ccc2-c2nn[nH]n2)cc1 [Example 366]', 37.0),
  ('CCc1nc2c(C)cc(C)nc2n1Cc1ccc(-c2cc(-c3cccn3C)ccc2-c2nn[nH]n2)cc1 [Example 22]', 14.8),
  ('CCCCc1nc(Cl)c(C(=O)O)n1Cc1ccc(-c2cc(-c3ccccc3)ccc2-c2nn[nH]n2)cc1 [Example 384]', 49.3),
  ('CCCCC1=NC2(CCOCC2)C(=O)N1Cc1ccc(-c2cc(-c3ccccc3O)ccc2-c2nnn[nH]2)cc1 [Example 157]', 44.7),
  ('CCc1nc2c(C)cc(C)nc2n1Cc1ccc(-c2cc(-c3cc(F)cc(F)c3)ccc2-c2nn[nH]n2)cc1 [Example 53]', 39.4),
  ('COc1ccnc(-c2ccc(-c3nn[nH]n3)c(-c3ccc(CN4C(=O)C5(CCCC5)N=C4C4CC4)cc3)c2)c1 [Example 119]', 51.4),
  ('CCOc1nc2cccc(C(=O)O)c2n1Cc1ccc(-c2cc(-c3ccccc3)ccc2C(=O)O)cc1 [Example 314]', 66.8),
  ('CCc1nc2c(C)cc(C)nc2n1Cc1ccc(-c2cc(N3CCCCCC3)ccc2-c2nn[nH]n2)cc1 [Example 95]', 21.0),
  ('CCc1nc2c(C)cc(C)nc2n1Cc1ccc(-c2cc(-n3cc4ccccc4n3)ccc2-c2nnn[nH]2)cc1 [Example 216]', 33.4);

* * *

Quick reference: BRET β-Arrestin2 High AT1R Expression Ymax (%) of the listed items.
# targetOfAssay: hAT1R (Homo sapiens)
# testSummary: BRET β-arrestin2 biosensor assay, higher receptor expression (hAT1R 5 ng/well), HEK293 cells
# Type: cell-based
assayReadout: BRET β-Arrestin2 High AT1R Expression Ymax (%)

INSERT INTO assay_data (molecule, readoutvalue) VALUES
  ('CCc1nc2c(C)cc(C)nc2n1Cc1ccc(-c2cc(-c3cccc(C)n3)ccc2-c2nn[nH]n2)cc1 [Example 59]', 52.1),
  ('CCCCc1ncc(C(=O)NCc2cnn(C)c2)n1Cc1ccc(-c2cc(-c3ccccc3)ccc2-c2nn[nH]n2)cc1 [Example 346]', 92.1),
  ('CCCCC(=O)N(Cc1ccc(-c2cc(-c3ccccc3)ccc2-c2noc(=O)[nH]2)cc1)C1(C(=O)OC)CCCCC1 [Example 280]', 75.7),
  ('CCCCc1ncc(C(=O)NC2CCCCCC2)n1Cc1ccc(-c2cc(-c3ccccc3)ccc2-c2nn[nH]n2)cc1 [Example 362]', 97.0);

* * *

# targetOfAssay: AGTR1 (Homo sapiens)
# Construct: host or cells: Pathunter CHO-K1 AGTR1 β-arrestin cell line (CHO-K1)
# Sequence (P30556 1-359): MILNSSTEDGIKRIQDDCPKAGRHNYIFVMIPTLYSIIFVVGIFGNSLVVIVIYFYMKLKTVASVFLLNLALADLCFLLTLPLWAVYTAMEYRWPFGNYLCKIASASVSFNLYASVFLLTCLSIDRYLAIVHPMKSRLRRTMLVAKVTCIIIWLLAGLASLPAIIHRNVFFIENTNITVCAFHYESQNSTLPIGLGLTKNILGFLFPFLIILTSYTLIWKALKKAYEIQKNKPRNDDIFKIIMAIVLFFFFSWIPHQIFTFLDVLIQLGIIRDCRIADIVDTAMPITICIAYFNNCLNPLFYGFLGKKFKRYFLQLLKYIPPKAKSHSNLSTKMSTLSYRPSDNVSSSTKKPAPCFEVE
# testSummary: DiscoveRx β-arrestin2 recruitment assay (enzyme complementation, Pathunter CHO-K1 AGTR1 β-arrestin cell line)
# Type: cell-based
# testContext: DiscoveRx β-arrestin2 recruitment
Response field label: string, one of Criterion met (EC50 strictly below 40 nM) or Criterion not met.

INSERT INTO results (compound, qualitativelabel) VALUES
  ('CCCCC(=O)N(Cc1ccc(-c2cc(-c3ccccn3)ccc2-c2nn[nH]n2)cc1)C1(C(=O)O)CCCCC1 [Example 293]', 'Criterion not met'),
  ('CCCCc1nc(Cl)c(C(N)=O)n1Cc1ccc(-c2cc(-c3ccccc3)ccc2-c2nn[nH]n2)cc1 [Example 393]', 'Criterion met'),
  ('CCc1nc2c(C)cc(C)nc2n1Cc1cnc(-c2cc(-c3ccccc3)ccc2-c2nnn[nH]2)cn1 [Example 187]', 'Criterion not met'),
  ('CCCCc1ncc(C(=O)N2CCCC2)n1Cc1ccc(-c2cc(-c3ccccc3)ccc2-c2nn[nH]n2)cc1 [Example 347]', 'Criterion not met'),
  ('Cc1ccnc(-c2ccc(-c3nn[nH]n3)c(-c3ccc(CN4C(=O)C5(CCCC5)N=C4C(C)C)cc3)c2)c1 [Example 118]', 'Criterion not met'),
  ('CCCC1=NC2(CCOC2)C(=O)N1Cc1ccc(-c2cc(-c3ccccc3F)ccc2-c2nnn[nH]2)cc1 (single isomer, unassigned) [Example 161]', 'Criterion not met'),
  ('CCc1nc2c(C)cc(C)nc2n1Cc1ccc(-c2cc(-n3cccn3)ccc2-c2nn[nH]n2)cc1 [Example 25]', 'Criterion met'),
  ('CCc1nc2c(C)cc(C)nc2n1Cc1ncc(-c2cc(-c3ccccc3O)ccc2-c2nnn[nH]2)cn1 [Example 189]', 'Criterion met'),
  ('CCc1nc2c(C)cc(C)nc2n1Cc1ccc(-c2cc(Oc3cccnc3)ccc2-c2nnn[nH]2)cc1 [Example 257]', 'Criterion met'),
  ('CCc1nc2c(C)cc(C)nc2n1Cc1ccc(-c2cc(-c3ccccc3)ccc2-c2nsc(=O)[nH]2)cc1 [Example 245]', 'Criterion not met'),
  ('CCCCc1nc(Cl)c(CO)n1Cc1ccc(-c2cc(-c3ccccc3)ccc2-c2nnn[nH]2)cc1 [Example 35]', 'Criterion not met'),
  ('CCCCC(=O)N(Cc1ccc(-c2cc(-c3cc(F)cc(F)c3)ccc2-c2nn[nH]n2)cc1)[C@H](C(=O)O)C(C)C [Example 438]', 'Criterion met'),
  ('CCCCc1ncc(C(=O)NCCC)n1Cc1ccc(-c2cc(-c3ccccc3)ccc2-c2nn[nH]n2)cc1 [Example 372]', 'Criterion not met'),
  ('CCCCc1nc(Cl)c(C(=O)O)n1Cc1ccc(-c2cc(-c3c[nH]c4ccccc34)ccc2-c2nn[nH]n2)cc1 [Example 391]', 'Criterion not met');
